molecular target: cIAP2-BIR3 (Homo sapiens (Human), UniProt Q13489); test: BIR binding assay (FRET competition), cIAP2 BIR3
Sequence (Q13489 238-349): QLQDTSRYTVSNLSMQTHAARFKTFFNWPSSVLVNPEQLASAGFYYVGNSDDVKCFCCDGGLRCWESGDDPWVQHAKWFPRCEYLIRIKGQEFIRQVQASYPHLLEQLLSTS
Value Kind: IC50

chemical_structure=C[C@@H]1CN(CC(=O)N2CC(C)(C)c3[nH]c(=O)c(Oc4ccc(F)cc4)cc32)[C@@H](CN2CCO[C@H](C(=O)NCc3ccc(CNC(=O)[C@@H]4CN(C[C@H]5CN[C@H](C)CN5CC(=O)N5CC(C)(C)c6[nH]c(=O)c(Oc7ccc(F)cc7)cc65)CCO4)cc3)C2)CN1 value_kind=IC50 observed="1.38 to 7.94 nM"
chemical_structure=C[C@@H]1CN(CC(=O)N2CC(C)(C)c3[nH]c(=O)c(Cc4ccc(F)cc4)cc32)[C@@H](CN2CCO[C@H](COc3ccc(-c4ccc(OC[C@@H]5CN(C[C@H]6CN[C@H](C)CN6CC(=O)N6CC(C)(C)c7[nH]c(=O)c(Cc8ccc(F)cc8)cc76)CCO5)cc4)cc3)C2)CN1 value_kind=IC50 observed="1.38 to 7.94 nM"

----------
target: cIAP2-BIR2 (Homo sapiens (Human)); assay: BIR binding assay (FRET competition), cIAP2 BIR2
Sequence (Q13489 158-242): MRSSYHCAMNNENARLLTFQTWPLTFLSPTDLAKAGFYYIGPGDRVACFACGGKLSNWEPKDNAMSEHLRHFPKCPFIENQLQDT
pIC50: −log10 of the molar value.
Value Kind: pIC50

chemical_structure=C[C@@H]1CN(CC(=O)N2CC(C)(C)c3[nH]c(=O)c(Cc4ccc(F)cc4)cc32)[C@@H](CN2CCO[C@H](COc3cc(F)cc(OC[C@@H]4CN(C[C@H]5CN[C@H](C)CN5CC(=O)N5CC(C)(C)c6[nH]c(=O)c(Cc7ccc(F)cc7)cc65)CCO4)c3)C2)CN1 observed="5.00 to 5.50"
chemical_structure=C[C@@H]1CN(CC(=O)N2CC(C)(C)c3[nH]c(=O)c(Cc4ccc(F)cc4)cc32)[C@@H](CN2CCO[C@H](C(=O)NCCCCCCCCCCNC(=O)[C@@H]3CN(C[C@H]4CN[C@H](C)CN4CC(=O)N4CC(C)(C)c5[nH]c(=O)c(Cc6ccc(F)cc6)cc54)CCO3)C2)CN1 observed="5.50 to 6.00"
chemical_structure=C[C@@H]1CN(CC(=O)N2CC(C)(C)c3[nH]c(=O)c(Cc4ccc(F)cc4)cc32)[C@@H](CN2CCC(CN(C)Cc3ccc(CN(C)CC4CCN(C[C@H]5CN[C@H](C)CN5CC(=O)N5CC(C)(C)c6[nH]c(=O)c(Cc7ccc(F)cc7)cc65)CC4)cc3)CC2)CN1 observed="5.00 to 5.50"
chemical_structure=C[C@@H]1CN(CC(=O)N2CC(C)(C)c3[nH]c(=O)c(Cc4ccc(F)cc4)cc32)[C@@H](CN2CCC(CN(C)C(=O)Cc3ccc(CC(=O)N(C)CC4CCN(C[C@H]5CN[C@H](C)CN5CC(=O)N5CC(C)(C)c6[nH]c(=O)c(Cc7ccc(F)cc7)cc65)CC4)cc3)CC2)CN1 observed="5.00 to 5.50"

----------
Each entry below lists one item and its recorded IC50 value.
biological target: cIAP2-BIR3 (Homo sapiens (Human), UniProt Q13489); assay: BIR binding assay (FRET competition), cIAP2 BIR3
Value Kind: IC50

chemical_structure=Cc1cc(Cl)ccc1Cc1cc2c([nH]c1=O)C(C)(C)CN2C(=O)CN1C[C@@H](C)NC[C@@H]1CN1CCO[C@H](C(=O)NCc2ccc(CNC(=O)[C@@H]3CN(C[C@H]4CN[C@H](C)CN4CC(=O)N4CC(C)(C)c5[nH]c(=O)c(Cc6ccc(Cl)cc6C)cc54)CCO3)cc2)C1 value_kind=IC50 observed="7.94 to 15.8 nM"
chemical_structure=C[C@@H]1CN(CC(=O)N2CC(C)(C)c3[nH]c(=O)c(Cc4ccc(F)cc4)cc32)[C@@H](CN2CCN(S(=O)(=O)c3ccc(Oc4ccc(S(=O)(=O)N5CCN(C[C@H]6CN[C@H](C)CN6CC(=O)N6CC(C)(C)c7[nH]c(=O)c(Cc8ccc(F)cc8)cc76)[C@H](C)C5)cc4)cc3)C[C@H]2C)CN1 value_kind=IC50 observed="15.8 to 31.6 nM"
chemical_structure=C[C@@H]1CN(CC(=O)N2CC(C)(C)c3[nH]c(=O)c(Cc4ccc(F)cc4)cc32)[C@@H](CN2CCN(C(=O)c3ccc4cc(C(=O)N5CCN(C[C@H]6CN[C@H](C)CN6CC(=O)N6CC(C)(C)c7[nH]c(=O)c(Cc8ccc(F)cc8)cc76)[C@H](C)C5)ccc4c3)C[C@H]2C)CN1 value_kind=IC50 observed="1.38 to 7.94 nM"
chemical_structure=C[C@@H]1CN(CC(=O)N2CC(C)(C)c3[nH]c(=O)c(Cc4ccc(F)cc4)cc32)[C@@H](CN2CCO[C@H](COc3cccc(OC[C@@H]4CN(C[C@H]5CN[C@H](C)CN5CC(=O)N5CC(C)(C)c6[nH]c(=O)c(Cc7ccc(F)cc7)cc65)CCO4)c3F)C2)CN1 value_kind=IC50 observed="15.8 to 31.6 nM"
chemical_structure=C[C@@H]1CN(CC(=O)N2CC(C)(C)c3[nH]c(=O)c(Cc4ccc(F)cc4)cc32)[C@@H](CN2CCO[C@H](C(=O)N(C)CCCCCCN(C)C(=O)[C@@H]3CN(C[C@H]4CN[C@H](C)CN4CC(=O)N4CC(C)(C)c5[nH]c(=O)c(Cc6ccc(F)cc6)cc54)CCO3)C2)CN1 value_kind=IC50 observed="7.94 to 15.8 nM"
